Where these numbers come from: ChEMBL document CHEMBL2375321

Consider the following compounds and their measured pIC50 readings.
System: Staphylococcus aureus
Assay: Antibacterial activity against methicillin-resistant Staphylococcus aureus ATCC 33591 by CLSI method
Assay type: functional, organism-based
Details: Staphylococcus aureus, ATCC 33591; read-out: IC50
Please keep in mind that pIC50 is minus log10 of the molar concentration; only the number is needed.

// solved cases for pIC50 follow
> print(dat)
                               input.smiles  reading
1  O=[N+]([O-])c1ccc(C(c2c[nH]c3ccccc23)c2c[nH]c3ccccc23)o1     5.07
2  O=[N+]([O-])c1ccc(C(c2c[nH]c3ccc(I)cc23)c2c[nH]c3ccc(I)cc23)o1     4.95
3  c1csc(C(c2c[nH]c3ccccc23)c2c[nH]c3ccccc23)c1     4.87

Turning to the following compound.
The reported pIC50 value, Staphylococcus aureus, for Fc1cc(F)cc(C(c2c[nH]c3ccccc23)c2c[nH]c3ccccc23)c1 reads 5.53

* * *

Test system: Cryptococcus neoformans
Assay: Antifungal activity against Cryptococcus neoformans ATCC 90113 by CLSI method
Type: functional, organism-based
The source made the active and inactive calls. The calls are words filed in the database; no cut-off is given here.
reported property: MFC

// solved cases for MFC follow
input smiles	MFC
c1csc(C(c2c[nH]c3ccccc23)c2c[nH]c3ccccc23)c1	30.5 µM
Oc1ccccc1C(c1c[nH]c2ccccc12)c1c[nH]c2ccccc12	inactive
COc1ccc2[nH]cc(C(c3cc(F)cc(F)c3)c3c[nH]c4ccc(OC)cc34)c2c1	inactive
Clc1ccc(C(c2c[nH]c3ccccc23)c2c[nH]c3ccccc23)cc1	14 µM
C[C@@H]1[C@H](O)[C@@H](C)/C=C/C=C/C=C/C=C/C=C/C=C/C=C/[C@H](O[C@@H]2O[C@H](C)[C@@H](O)[C@H](N)[C@@H]2O)C[C@@H]2O[C@](O)(C[C@@H](O)C[C@@H](O)[C@H](O)CC[C@@H](O)C[C@@H](O)CC(=O)O[C@H]1C)C[C@H](O)[C@H]2C(=O)O	1.35 µM
COc1ccc(C(c2c[nH]c3ccccc23)c2c[nH]c3ccccc23)cc1O	27.2 µM
Oc1ccc(C(c2c[nH]c3ccccc23)c2c[nH]c3ccccc23)cc1	59.2 µM
Fc1ccc(C(c2c[nH]c3ccc(I)cc23)c2c[nH]c3ccc(I)cc23)cc1Br	29.9 µM

For reference, reported MFC for COc1cc(C(c2c[nH]c3ccc(I)cc23)c2c[nH]c3ccc(I)cc23)ccc1O stands at inactive

For reference, reported MFC for O=[N+]([O-])c1ccc(C(c2c[nH]c3ccccc23)c2c[nH]c3ccccc23)o1 stands at inactive

For reference, reported MFC for Fc1cc(F)cc(C(c2c[nH]c3ccccc23)c2c[nH]c3ccccc23)c1 stands at 3.49 µM

For reference, reported MFC for Brc1ccc(C(c2c[nH]c3ccc(I)cc23)c2c[nH]c3ccc(I)cc23)cc1 stands at 30.7 µM

For reference, reported MFC for Fc1ccc(C(c2c[nH]c3ccccc23)c2c[nH]c3ccccc23)cc1Br stands at 5.98 µM

For reference, reported MFC for Brc1cccc(C(c2c[nH]c3ccccc23)c2c[nH]c3ccccc23)c1 stands at 12.5 µM

For reference, reported MFC for COc1ccc(C(c2c[nH]c3ccccc23)c2c[nH]c3ccccc23)cc1 stands at inactive
